TARGET: C-C chemokine receptor type 1 (Homo sapiens, UniProt P32246)
Sequence (P32246 whole entry): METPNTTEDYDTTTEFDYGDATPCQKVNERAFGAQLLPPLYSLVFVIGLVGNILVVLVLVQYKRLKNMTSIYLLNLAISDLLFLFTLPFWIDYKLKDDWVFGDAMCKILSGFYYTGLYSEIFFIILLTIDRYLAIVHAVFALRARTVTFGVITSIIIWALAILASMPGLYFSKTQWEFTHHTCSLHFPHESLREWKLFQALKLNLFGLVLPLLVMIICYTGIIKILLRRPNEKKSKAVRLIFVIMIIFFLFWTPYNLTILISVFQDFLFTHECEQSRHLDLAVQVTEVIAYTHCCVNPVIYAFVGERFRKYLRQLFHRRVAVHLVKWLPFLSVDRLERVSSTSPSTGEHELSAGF
EXPERIMENT: Displacement of [125I]MIP-1alpha from human recombinant CCR1 expressed in HEK293 cells after 1.5 hrs
Entries and their pIC50
Just the number, please; pIC50 means minus log10 of the concentration in mol/L.

Lookup: Please tell me the measured pIC50 for `CC(=O)Nc1ccc(F)cc1OC[C@@H](O)CN1CCC2(CC1)Cc1cc(F)ccc1O2` ; system: C-C chemokine receptor type 1 (Homo sapiens, UniProt P32246).
Found: 9.44

Lookup: Please tell me the measured pIC50 for `CC(=O)Nc1ccccc1OC[C@@H](O)CN1CCC2(CC1)Cc1cc(Cl)ccc1O2` ; system: C-C chemokine receptor type 1 (Homo sapiens, UniProt P32246).
Found: 9.02
